# measurement-target: Bombesin receptor subtype-3 (Homo sapiens) (UniProt P32247)
# Sequence (P32247 whole entry): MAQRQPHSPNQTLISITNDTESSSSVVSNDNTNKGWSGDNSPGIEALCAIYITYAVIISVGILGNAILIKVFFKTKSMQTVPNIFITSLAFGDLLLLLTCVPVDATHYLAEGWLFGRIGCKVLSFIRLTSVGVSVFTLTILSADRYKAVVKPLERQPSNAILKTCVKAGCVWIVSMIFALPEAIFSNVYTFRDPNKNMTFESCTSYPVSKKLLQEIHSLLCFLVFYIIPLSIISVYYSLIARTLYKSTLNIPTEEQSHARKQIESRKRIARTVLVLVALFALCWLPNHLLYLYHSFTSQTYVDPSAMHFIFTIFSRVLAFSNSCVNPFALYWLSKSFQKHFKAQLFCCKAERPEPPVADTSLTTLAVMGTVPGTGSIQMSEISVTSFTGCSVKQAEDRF
# experiment-notes: Agonist activity at human BRS3 expressed in HEK293AEQ cells after 10 mins by aequorin bioluminescence assay relative to dY-peptide
# Type: functional, cell-based
Quick rule: Activity of at least 10% means true, below that means false.

[[record]]
entry_smiles = "Nc1n[nH]c2nc(N3CCCCC3)c3c(c12)CCN(Cc1ccccn1)C3"
class_label = "true"

[[record]]
entry_smiles = "Nc1n[nH]c2nc(N3CCCCC3)c3c(c12)CCN(Cc1ccc2c(c1)OCO2)C3"
class_label = "false"

[[record]]
entry_smiles = "Nc1n[nH]c2nc(N3CCOCC3)c3c(c12)CCN(Cc1ccccc1)C3"
class_label = "false"

[[record]]
entry_smiles = "Nc1n[nH]c2nc(N3CCNCC3)c3c(c12)CCN(Cc1ccccc1)C3"
class_label = "false"

[[record]]
entry_smiles = "Nc1n[nH]c2nc(N3CCCCC3)c3c(c12)CCN(Cc1ccccc1)C3"
class_label = "true"

[[record]]
entry_smiles = "CC(C)(C)CNc1n[nH]c2nc(N3CCCCC3)c3c(c12)CCN(Cc1ccccc1)C3"
class_label = "true"

[[record]]
entry_smiles = "CC(C)(C)CN1CCc2c(c(N3CCCCC3)nc3[nH]nc(N)c23)C1"
class_label = "true"

[[record]]
entry_smiles = "O=C(Nc1n[nH]c2nc(N3CCCCC3)c3c(c12)CCN(Cc1ccccc1)C3)C1CCCC1"
class_label = "true"

[[record]]
entry_smiles = "CC(=O)Nc1n[nH]c2nc(N3CCCCC3)c3c(c12)CCN(Cc1ccccc1)C3"
class_label = "true"

[[record]]
entry_smiles = "CC1CCN(c2nc3[nH]nc(N)c3c3c2CN(Cc2ccccc2)CC3)CC1"
class_label = "false"

[[record]]
entry_smiles = "CC(C)C(=O)Nc1n[nH]c2nc(N3CCCCC3)c3c(c12)CCN(Cc1ccccc1)C3"
class_label = "true"

[[record]]
entry_smiles = "CCNc1n[nH]c2nc(N3CCCCC3)c3c(c12)CCN(Cc1ccccc1)C3"
class_label = "true"

[[record]]
entry_smiles = "CN1CCN(c2nc3[nH]nc(N)c3c3c2CN(Cc2ccccc2)CC3)CC1"
class_label = "false"

[[record]]
entry_smiles = "CC(C)(C)C(=O)Nc1n[nH]c2nc(N3CCCCC3)c3c(c12)CCN(Cc1ccccc1)C3"
class_label = "true"

[[record]]
entry_smiles = "Nc1n[nH]c2nc(N3CCCC3)c3c(c12)CCN(Cc1ccccc1)C3"
class_label = "true"

[[record]]
entry_smiles = "CCC(C)(C)C(=O)Nc1n[nH]c2nc(N3CCCCC3)c3c(c12)CCN(Cc1ccccc1)C3"
class_label = "true"

[[record]]
entry_smiles = "Nc1n[nH]c2nc(N3CCCCCCC3)c3c(c12)CCN(Cc1ccccc1)C3"
class_label = "false"

[[record]]
entry_smiles = "Nc1n[nH]c2nc(Nc3ccccc3)c3c(c12)CCN(Cc1ccccc1)C3"
class_label = "false"

[[record]]
entry_smiles = "Nc1n[nH]c2nc(N3CCCCC3)c3c(c12)CCN(Cc1ccc(F)cc1)C3"
class_label = "false"

[[record]]
entry_smiles = "Nc1n[nH]c2nc(N3CCCCC3)c3c(c12)CCN(CC1CCCCC1)C3"
class_label = "true"


###

# experiment-notes: Bioavailability in rat
# Format: ADME, organism-based
# condition-set: in vivo
measured-attribute: bioavailability

[[record]]
entry_smiles = "Nc1n[nH]c2nc(N3CCCCC3)c3c(c12)CCN(Cc1ccccc1)C3"
measured_attribute = "bioavailability"
reported_measurement = "5.7%"

